Target: T1, human IL-23R (hIL-23R), custom construct with C-terminal avi and his tags, biotinylated (human, UniProt Q5VWK5 24-355, limits assumed, enzymatically biotinylated via the avi-tag)
T1 construct: immobilized on streptavidin tips in BLI, labeled target in FACS; also called human IL-23 receptor
T1 sequence (looked up): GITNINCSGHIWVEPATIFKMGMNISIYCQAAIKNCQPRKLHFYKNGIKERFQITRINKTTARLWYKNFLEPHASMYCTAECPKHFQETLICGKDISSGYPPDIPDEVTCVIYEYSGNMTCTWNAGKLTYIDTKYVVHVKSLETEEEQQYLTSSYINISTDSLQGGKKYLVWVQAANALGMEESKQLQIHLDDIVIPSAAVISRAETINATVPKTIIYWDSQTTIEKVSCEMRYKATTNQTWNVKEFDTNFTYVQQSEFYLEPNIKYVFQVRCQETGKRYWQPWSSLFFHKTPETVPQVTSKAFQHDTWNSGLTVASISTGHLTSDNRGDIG
Assay: SPR
VALUE TYPE: Kd (nM)
Unit nM implied. Number only.

The binder listed as rA11dslf02_M1P_R8Q_K35W (designed binder) PEPEKYLQELCKKYYEGKLSQQEAVEEIRKYARKWGLEAWKLVWYFMQCVKRDIHHHHHH has a reported Kd of 0.075

meta.source: patent US20230357323A1
